FYI, the data here is from patent US8563559B2.

Biological target: Axl (Homo sapiens)
Construct: endogenous in cells; host or cells: HeLa
Sequence (P30530 26-894): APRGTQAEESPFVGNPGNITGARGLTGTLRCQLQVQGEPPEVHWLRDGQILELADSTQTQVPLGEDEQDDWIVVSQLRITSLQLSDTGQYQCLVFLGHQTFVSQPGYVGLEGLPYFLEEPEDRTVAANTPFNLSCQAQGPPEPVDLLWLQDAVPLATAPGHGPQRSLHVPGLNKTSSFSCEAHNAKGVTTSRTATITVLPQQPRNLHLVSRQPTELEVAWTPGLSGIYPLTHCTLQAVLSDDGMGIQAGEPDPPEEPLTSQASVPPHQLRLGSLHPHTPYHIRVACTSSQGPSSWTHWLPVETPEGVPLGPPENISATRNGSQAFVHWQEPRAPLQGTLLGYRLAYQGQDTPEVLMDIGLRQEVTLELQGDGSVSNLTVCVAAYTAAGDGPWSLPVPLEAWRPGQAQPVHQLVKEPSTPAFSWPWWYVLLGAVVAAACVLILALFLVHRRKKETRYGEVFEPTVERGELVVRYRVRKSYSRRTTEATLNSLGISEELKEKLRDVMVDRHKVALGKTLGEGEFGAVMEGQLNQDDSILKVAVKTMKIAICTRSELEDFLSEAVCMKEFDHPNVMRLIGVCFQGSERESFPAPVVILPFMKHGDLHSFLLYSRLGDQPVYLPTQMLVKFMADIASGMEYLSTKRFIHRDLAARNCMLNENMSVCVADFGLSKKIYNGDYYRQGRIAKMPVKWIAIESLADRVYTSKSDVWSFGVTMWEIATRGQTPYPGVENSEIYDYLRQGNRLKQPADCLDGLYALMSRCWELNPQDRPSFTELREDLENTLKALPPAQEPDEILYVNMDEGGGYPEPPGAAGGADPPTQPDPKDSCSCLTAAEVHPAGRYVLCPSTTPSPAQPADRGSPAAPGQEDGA
Assay: Phospho-AKT in-cell Western assay (inhibition of Axl activity)
Assay type: cell-based
Conditions: Table 1, formula (Ia); Hela cells, Axl antibody cross-linking stimulation, phospho-Akt chemiluminescence normalized to relative cell number
pIC50: −log10 of the molar value.
Quantity measured: pIC50

Examples with answers:
Find the recorded pIC50 belonging to CC(C)NC(=O)[C@H]1C[C@H]2C[C@H](C2(C)C)[C@@]1(C)Nc1nc(Nc2ccc(OCCN3CCCC3)cc2)ncc1Cl [Compound 63] and report it.
> 6.00

Cool, now CNC(=O)[C@H]1C[C@H]2C[C@H](C2(C)C)[C@@]1(C)Nc1nc(Nc2ccc(N3CCN(C)CC3)c(F)c2)ncc1Cl [Compound 4]
> 6.00

Would you kindly repeat that for CC1(C)[C@H]2C[C@H](C(N)=O)[C@](C)(Nc3nc(Nc4ccc(OCCN5CCCC5)cc4)ncc3Cl)[C@@H]1C2 [Compound 29] ?
> 6.00

Others:
Record request: pIC50 value, item CNC(=O)[C@H]1C[C@H]2C[C@H](C2(C)C)[C@@]1(C)Nc1nc(Nc2ccc(N3CCC(F)(F)CC3)c(F)c2)ncc1F [Compound 35]
< 4.70

How about this molecule: CNC(=O)[C@H]1C[C@H]2C[C@H](C2(C)C)[C@@]1(C)Nc1nc(Nc2ccc(OCCN3CCCC3)c(F)c2)ncc1Cl [Compound 3]
> 6.00

// query: CNC(=O)[C@H]1C[C@H]2C[C@H](C2(C)C)[C@@]1(C)Nc1nc(Nc2ccc(N3CCN(C(C)=O)CC3)c(C(F)(F)F)c2)ncc1F [Compound 39]
< 4.70

Lookup CNC(=O)[C@H]1C[C@H]2C[C@H](C2(C)C)[C@@]1(C)Nc1nc(Nc2ccc(OCC(C)(C)N3CCCC3)cc2)ncc1Cl [Compound 8]
> 6.00

Same lookup for CNC(=O)[C@H]1C[C@H]2C[C@H](C2(C)C)[C@@]1(C)Nc1nc(Nc2ccc(N3CCN(C)CC3)c(Cl)c2)ncc1Cl [Compound 5] , please.
> 6.00

Similarly, CNC(=O)[C@H]1C[C@H]2C[C@H](C2(C)C)[C@@]1(C)Nc1nc(Nc2ccc(N3CCN(CCO)CC3)cc2)ncc1Cl [Compound 41] ?
> 6.00

CNC(=O)[C@H]1C[C@H]2C[C@H](C2(C)C)[C@@]1(C)Nc1nc(Nc2ccc(N3CCN(C)CC3)c(F)c2)ncc1C [Compound 43] , same question.
> 6.00

Also CNC(=O)[C@H]1C[C@H]2C[C@H](C2(C)C)[C@@]1(C)Nc1nc(Nc2ccc(OCCN3CCCC3)cc2)ncc1Cl [Compound 1] , if possible.
> 6.00

Can you handle CN1CCN(c2ccc(Nc3ncc(Cl)c(N[C@@]4(CCOCc5ccccc5)[C@@H](C(N)=O)C[C@H]5C[C@@H]4C5(C)C)n3)cc2F)CC1 [Compound 17] next?
< 4.70

Then this molecule: CCN(CC)C1CCN(c2ccc(Nc3ncc(Cl)c(N[C@@]4(C)[C@@H](C(=O)NC5CC5)C[C@H]5C[C@@H]4C5(C)C)n3)cc2F)CC1 [Compound 62]
> 6.00
